The measurements presented in this section are drawn from ChEMBL document CHEMBL3039007.

- tested.target: Solute carrier organic anion transporter family member 1B1 (Homo sapiens)
- Sequence (Q9Y6L6 whole entry): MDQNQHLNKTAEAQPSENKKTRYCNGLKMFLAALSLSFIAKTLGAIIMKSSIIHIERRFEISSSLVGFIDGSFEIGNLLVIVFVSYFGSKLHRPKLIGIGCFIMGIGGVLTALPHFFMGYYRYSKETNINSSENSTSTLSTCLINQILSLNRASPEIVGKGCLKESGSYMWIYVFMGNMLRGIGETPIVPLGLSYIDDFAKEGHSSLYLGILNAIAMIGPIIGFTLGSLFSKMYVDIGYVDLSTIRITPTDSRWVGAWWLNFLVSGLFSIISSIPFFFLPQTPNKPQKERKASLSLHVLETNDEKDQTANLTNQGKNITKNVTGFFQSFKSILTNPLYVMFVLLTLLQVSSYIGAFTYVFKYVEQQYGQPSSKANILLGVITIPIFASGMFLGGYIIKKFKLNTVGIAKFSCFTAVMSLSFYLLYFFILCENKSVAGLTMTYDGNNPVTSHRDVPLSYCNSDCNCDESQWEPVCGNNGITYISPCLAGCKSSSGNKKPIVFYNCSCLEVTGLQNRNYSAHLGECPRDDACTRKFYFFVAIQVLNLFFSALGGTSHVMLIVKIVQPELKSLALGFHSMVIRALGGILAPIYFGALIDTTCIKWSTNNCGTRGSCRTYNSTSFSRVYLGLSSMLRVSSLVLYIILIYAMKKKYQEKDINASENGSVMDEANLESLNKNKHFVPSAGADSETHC
- measurement.context: chinese hamster, cho, 10 µM
quantity: residual activity (%)
One number for each entry, in %.

molecule	observed.measurement
NCCCC(=O)O	56.63
COc1ccc(-c2coc3c(OC)c(OC)cc(O)c3c2=O)cc1	135.9
CCOC(=O)[C@H](CCc1ccccc1)N[C@@H](C)C(=O)N1[C@H](C(=O)O)C[C@H]2CCCC[C@@H]21	118
Cc1ccc(-c2nc3ccc(C)cn3c2CC(=O)N(C)C)cc1	177.4

Batch lookup, residual activity per entry.
1. Cc1cn([C@H]2C[C@H](N=[N+]=[N-])[C@@H](CO)O2)c(=O)[nH]c1=O
2. COc1ccc(C[C@H]2NC[C@H](O)[C@H]2OC(C)=O)cc1
3. NS(=O)(=O)c1cc2c(cc1Cl)NC(C(Cl)Cl)NS2(=O)=O (stereo unspecified) [TRICHLORMETHIAZIDE]
4. COC(=O)C[C@H]1C(C)(C)C(=O)[C@@H]2CC3C4=CC(=O)O[C@@H](c5ccoc5)[C@]4(C)CC[C@@H]3[C@@]1(C)C2=O (stereo partly specified)
5. CC(=O)c1ccc(O)c(CC=C(C)C)c1 [3-PRENYL-4-HYDROXYACETOPHENONE]
6. Cn1c(=O)[nH]c2nc[nH]c2c1=O

### Response
134
81.33
81.82
20.92
93.69
102.1

Batch lookup, residual activity per entry.
1. CC(C)CCC[C@@H](C)[C@H]1CC[C@H]2[C@@H]3CC[C@H]4CC(=O)CC[C@]4(C)[C@H]3CC[C@]12C
2. CN(C)CCC(c1ccc(Br)cc1)c1ccccn1.O=C(O)/C=C\C(=O)O (stereo unspecified) [BROMPHENIRAMINE MALEATE]
3. COc1ccc(-c2coc3cc(O)ccc3c2=O)c(O)c1O

### Response
1. 74.43
2. 88.52
3. 88.35

Batch lookup, residual activity per entry.
1. CN1CCCN=C1COC(=O)C(O)(c1ccccc1)C1CCCCC1.Cl (stereo unspecified) [OXYPHENCYCLIMINE HYDROCHLORIDE]
2. Cc1ccc(/N=C/N(C)/C=N/c2ccc(C)cc2C)c(C)c1
3. O=C(CCCN1CCN(c2ccccn2)CC1)c1ccc(F)cc1
4. C=C[C@](C)(O)CCC=C(C)C [LINALOOL (+)]
5. CC(C)OC(=O)Nc1cccc(Cl)c1
6. C[C@@H]1C(=O)O[C@H]2C[C@@]34[C@H]5C[C@@H](C(C)(C)C)[C@]36[C@@H](OC(=O)[C@@H]6O)O[C@@]4(C(=O)O5)[C@]21O [GINKGOLIDE A]
7. Cc1onc(-c2ccccc2)c1C(=O)N[C@@H]1C(=O)N2[C@@H]1SC(C)(C)[C@@H]2C(=O)[O-].[Na+]

### Response
[92.1, 108.2, 88.32, 102.5, 104.8, 103.7, 76.67]

Batch lookup, residual activity per entry.
1. C[N+](C)(C)CCOP(=O)(O)OP(=O)([O-])OC[C@H]1O[C@@H](n2ccc(N)nc2=O)[C@H](O)[C@@H]1O
2. COC(=O)C(C)c1ccc(C(=O)c2cccs2)cc1 (stereo unspecified)
3. C[C@H]1O[C@@H](O[C@H]2[C@@H](O)C[C@H](O[C@H]3[C@@H](O)C[C@H](O[C@H]4CC[C@@]5(C)[C@H](CC[C@@H]6[C@@H]5CC[C@]5(C)[C@@H](C7=CC(=O)OC7)[C@@H](O)C[C@]65O)C4)O[C@@H]3C)O[C@@H]2C)C[C@H](O)[C@@H]1O
4. C=C1CC[C@@H]2[C@](C)(CO)[C@H](O)CC[C@@]2(C)[C@@H]1C/C=C1/C(=O)OC[C@H]1O [ANDROGRAPHOLIDE]
5. CCN(CCCc1ccccc1)CCCc1ccccc1.O=C(O)CC(O)(CC(=O)O)C(=O)O [ALVERINE CITRATE]
6. OCC(O)CN1CCN(c2ccccc2)CC1 (stereo unspecified)

### Response
1: 81.06; 2: 93.7; 3: 103.4; 4: 80.16; 5: 48.34; 6: 71.05

###

- tested.target: Solute carrier organic anion transporter family member 1B1 (Homo sapiens)
- measurement.context: chinese hamster, cho, 10 µM
Label yes (1) when residual activity < 70%; otherwise no (0).

Sample answers from the record:
compound	label.value
Cl.c1ccc([C@H]2CN3CCSC3=N2)cc1 [LEVAMISOLE HYDROCHLORIDE]	no (0)
C/C=C(/C)C(=O)O[C@H]1CC[C@@]2(C)[C@@H]3CC[C@H]4[C@]5(O)C[C@H](O)[C@@]6(O)[C@@H](CN7C[C@@H](C)CC[C@H]7[C@@]6(C)O)[C@]5(O)C[C@@]42O[C@]13O	no (0)
COC(=O)COc1cc(Cl)c(Cl)cc1Cl	no (0)
O=C1CN(/N=C/c2ccc(-c3ccc([N+](=O)[O-])cc3)o2)C(=O)[N-]1.[Na+] [DANTROLENE SODIUM]	no (0)

### Prompt Is 70% strictly greater than the compound's reported residual activity? compound: COc1cc(O)cc(OC)c1OC [ANTIAROL]
### Response no (0)

### Prompt Is 70% strictly greater than the compound's reported residual activity? compound: "CC(=O)O[C@@H]1C[C@H]2C(C)(C)C(=O)[C@H]3O[C@H]3[C@]2(C)[C@H]2CC[C@@]3(C)[C@H](c4ccoc4)OC(=O)[C@H]4O[C@]43[C@@]21C"
### Response yes (1)

### Prompt Is 70% strictly greater than the compound's reported residual activity? compound: "O=C1C[C@@H](c2ccccc2)Oc2cc(O)cc(O)c21"
### Response no (0)

###

- tested.target: Solute carrier organic anion transporter family member 1B1 (Homo sapiens)
- measurement.context: chinese hamster, cho, 10 µM
quantity: residual activity (%)
Answers are plain numbers, in %.

compound	observed.measurement
O=c1[nH]c(=O)n([C@H]2C[C@H](O)[C@@H](CO)O2)cc1F [FLOXURIDINE]	116.3
Cl.Clc1ccc(C(OCCN2CCCCC2)c2ccccc2)cc1 (centres undefined) [CLOPERASTINE HYDROCLORIDE]	53.44
COc1ccc([C@H]2Oc3cc(OC)cc(OC)c3C[C@H]2O)cc1 [EPIAFZELECHIN TRIMETHYL ETHER]	79.64

Okay, now this compound:
Item CC(=O)OCC(=O)[C@@]1(O)CC[C@H]2[C@@H]3CCC4=CC(=O)C=C[C@]4(C)[C@H]3[C@@H](O)C[C@@]21C [PREDNISOLONE ACETATE] was tested on Solute carrier organic anion transporter family member 1B1 (Homo sapiens); the reported residual activity is 63.69

###

- tested.target: Solute carrier organic anion transporter family member 1B3 (Homo sapiens, UniProt Q9NPD5)
- Sequence (Q9NPD5 whole entry): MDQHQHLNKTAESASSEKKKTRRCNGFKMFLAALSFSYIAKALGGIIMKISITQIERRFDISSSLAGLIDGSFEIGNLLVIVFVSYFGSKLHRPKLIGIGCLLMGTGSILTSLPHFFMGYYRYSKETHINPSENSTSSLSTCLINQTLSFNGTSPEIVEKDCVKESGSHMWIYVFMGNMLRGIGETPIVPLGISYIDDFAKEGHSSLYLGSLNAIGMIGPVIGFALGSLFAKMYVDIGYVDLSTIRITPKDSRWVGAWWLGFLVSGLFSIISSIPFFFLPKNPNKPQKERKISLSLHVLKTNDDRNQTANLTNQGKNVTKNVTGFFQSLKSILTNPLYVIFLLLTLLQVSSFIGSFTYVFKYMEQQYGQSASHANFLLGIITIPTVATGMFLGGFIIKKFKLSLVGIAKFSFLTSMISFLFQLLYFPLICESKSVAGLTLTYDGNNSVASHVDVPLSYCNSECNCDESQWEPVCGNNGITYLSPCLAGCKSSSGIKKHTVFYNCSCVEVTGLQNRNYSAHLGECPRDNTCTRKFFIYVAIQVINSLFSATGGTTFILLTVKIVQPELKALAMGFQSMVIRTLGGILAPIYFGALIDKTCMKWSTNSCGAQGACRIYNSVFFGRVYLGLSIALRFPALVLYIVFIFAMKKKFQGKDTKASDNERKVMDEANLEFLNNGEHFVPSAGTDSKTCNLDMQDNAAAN
- measurement.context: chinese hamster, cho, 10 µM
Please enter rule met where residual activity is greater than or equal to 90%, and rule not met where it is lower.

### Prompt Check if residual activity >= 90% (inclusive). Item: CCCCN1CCCCC1C(=O)Nc1c(C)cccc1C.Cl (stereo not drawn) [BUPIVACAINE HYDROCHLORIDE]
### Response rule met

### Prompt Check if residual activity >= 90% (inclusive). Item: "COc1cc2c(cc1O)CCN[C@@H]2C"
### Response rule met

###

- tested.target: Solute carrier organic anion transporter family member 1B3 (Homo sapiens, UniProt Q9NPD5)
- measurement.context: chinese hamster, cho, 10 µM
Residues, ends and D or L forms follow the SMILES beside them.
Would you kindly list residual activity for each of these molecules?
One number for each entry, in %.

Batch lookup, residual activity per entry.
1. CC(C)C[C@H](NC(=O)CN)C(=O)N[C@@H](Cc1ccccc1)C(=O)O (H-Gly-Leu-Phe-OH)
2. Cl.NNc1nncc2ccccc12 [HYDRALAZINE HYDROCHLORIDE]
3. CCCCOC(=O)c1ccccc1C(=O)OCCCC [DIBUTYL PHTHALATE]
4. Cc1[nH]c2ccccc2c1CN(C)C
5. COc1ccc2c(=O)c(CC(=O)O)coc2c1 [ANHYDROBRAZILIC ACID]
6. COC1=CC(=O)C[C@@H](C)[C@]12Oc1c(Cl)c(OC)cc(OC)c1C2=O
7. CC1(C)C(=O)C=C[C@]2(C)[C@H]3CC[C@@]4(C)[C@H](c5ccoc5)OC(=O)[C@H]5O[C@]54[C@]3(C)C(=O)C[C@@H]12
8. Cl.NCC(O)c1ccc(O)cc1 (stereo not drawn) [OCTOPAMINE HYDROCHLORIDE]

### Response
1: 114.9; 2: 115.1; 3: 124.6; 4: 80.09; 5: 76.12; 6: 97.62; 7: 85.14; 8: 96.06

###

Would you kindly list residual activity for each of these compounds?
- tested.target: Solute carrier organic anion transporter family member 1B3 (Homo sapiens, UniProt Q9NPD5)
- measurement.context: chinese hamster, cho, 10 µM
Numbers only, in %.

Illustrative cases are given below, each with its answer.
compound	units.of.measure	residual activity
Nc1ccc(S(=O)(=O)c2ccc(N)cc2)cc1 [DAPSONE]	%	84.17
O=C(CCCN1CC=C(n2c(=O)[nH]c3ccccc32)CC1)c1ccc(F)cc1 [DROPERIDOL]	%	147.6
O=C(OC[C@H]1O[C@@H](OC(=O)c2cc(O)c(O)c(OC(=O)c3cc(O)c(O)c(O)c3)c2)[C@H](OC(=O)c2cc(O)c(O)c(OC(=O)c3cc(O)c(O)c(O)c3)c2)[C@@H](OC(=O)c2cc(O)c(O)c(OC(=O)c3cc(O)c(O)c(O)c3)c2)[C@@H]1OC(=O)c1cc(O)c(O)c(OC(=O)c2cc(O)c(O)c(O)c2)c1)c1cc(O)c(O)c(OC(=O)c2cc(O)c(O)c(O)c2)c1 [TANNIC ACID]	%	10.59

Batch lookup, residual activity per entry.
1. CC(=O)Oc1c2c(c(CC=C(C)C)c3c1C(=O)C1=C[C@@H]4CC5C(C)(C)OC(C/C=C(\C)C(=O)O)(C4=O)[C@@]15O3)OC(C)(CCC=C(C)C)C=C2 (stereo partly drawn) [ACETYL ISOGAMBOGIC ACID]
2. CC(C)OC(=O)Nc1cccc(Cl)c1 [CHLORPROPHAM]
3. Oc1c(Br)cc(Br)c2cccnc12 [BROXYQUINOLINE]
4. CCN(CC)CCCC(C)Nc1ccnc2cc(Cl)ccc12.O=P(O)(O)O.O=P(O)(O)O (stereo not drawn) [CHLOROQUINE PHOSPHATE]
5. C[C@@H]1[C@H]2[C@H](O[C@@H]3O[C@H](CO)[C@@H](O)[C@H](O)[C@H]3O)OC=C(C(=O)O)[C@H]2C[C@@H]1O [LOGANIC ACID]
6. CNC[C@H](O)c1cccc(O)c1.Cl [PHENYLEPHRINE HYDROCHLORIDE]
7. CC1=C(C(=O)O)N2C(=O)[C@@H](NC(=O)[C@H](N)c3ccccc3)[C@H]2SC1 [CEPHALEXIN ANHYDROUS]
8. Cc1cc(O)c2c(c1)C(=O)c1cccc(O)c1C2=O [CHRYSOPHANOL]

### Response
30.34
107
75.68
99.18
99.49
106.2
89.2
93.35

Batch lookup, residual activity per entry.
1. CC(=O)O[C@H]1CC[C@@]23C(=O)O[C@]45CC[C@H](C6=CC(=O)OC6)[C@@]4(C)CC[C@H]2[C@H]5CC[C@]3(O)C1
2. CCC[C@@H]1C[C@@H](C(=O)N[C@@H]([C@H]2O[C@H](SC)[C@H](O)[C@@H](O)[C@H]2O)[C@@H](C)O)N(C)C1.Cl.O [LINCOMYCIN HYDROCHLORIDE]

### Response
1. 85.76
2. 97.7
